These data points were gathered from PubChem BioAssay AID1026.

target_or_test_system: Bifunctional epoxide hydrolase 2 (Homo sapiens) (UniProt P34913)
Sequence (P34913 whole entry, looked up): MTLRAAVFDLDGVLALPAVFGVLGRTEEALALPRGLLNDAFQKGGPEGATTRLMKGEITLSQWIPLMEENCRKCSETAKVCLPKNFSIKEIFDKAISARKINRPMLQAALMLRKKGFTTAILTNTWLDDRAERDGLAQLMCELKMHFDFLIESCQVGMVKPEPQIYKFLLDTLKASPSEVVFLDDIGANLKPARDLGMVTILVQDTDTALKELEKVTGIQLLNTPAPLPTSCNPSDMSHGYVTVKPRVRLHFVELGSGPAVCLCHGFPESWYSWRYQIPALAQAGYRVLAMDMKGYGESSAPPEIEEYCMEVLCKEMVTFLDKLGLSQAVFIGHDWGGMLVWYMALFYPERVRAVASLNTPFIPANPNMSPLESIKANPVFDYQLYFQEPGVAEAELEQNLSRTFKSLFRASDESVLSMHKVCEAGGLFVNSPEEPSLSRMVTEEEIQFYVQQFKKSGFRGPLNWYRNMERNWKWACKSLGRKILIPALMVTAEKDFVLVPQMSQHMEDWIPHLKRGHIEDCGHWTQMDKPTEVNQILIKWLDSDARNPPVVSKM
test_details: sEH inhibitor concentration-response potency, dose response, biochemical, human sEH, fluorescence, Infinite200 (AID 1026)
assay_context: recombinant human sEH, fluorogenic substrate, at 0.2 µM, stronger effect = higher value
Overview of recorded inhibition for various compounds
parameter: inhibition (%)

> print(dat)
                                    compound  units.symbol  observed.result
 1  CC(NC(=O)NC12CC3CC(CC(C3)C1)C2)C1CCCO1 (stereo unspecified)             %             71.5
 2  O=C(NCCC1=CCCCC1)C1CCCN(S(=O)(=O)c2ccccc2)C1 (stereo unspecified)             %             48.7
 3  CCN(CCNC(=O)C1CCN(Cc2nc(-c3cccc(Cl)c3)oc2C)CC1)c1ccccc1             %             45.4
 4  Cc1cccc(NC(=O)Nc2cccc(Oc3c(F)c(F)c(F)c(F)c3F)c2)c1             %             47.7
 5  O=C(NC12CC3CC(CC(C3)C1)C2)N1CCC(O)(c2ccc3c(c2)OCO3)CC1             %               46
 6  CCC(C)[C@H](NC(=O)NCc1ccccc1Cl)C(=O)OC (stereo partly specified)             %             48.1
 7  O=C(Nc1ccc(Cl)cc1)N1CCC(c2nc(-c3ccccc3Cl)no2)CC1             %             62.8
 8  CCN(CCCNC(=O)C1CCN(S(=O)(=O)N2CCC3(CC2)OCCO3)CC1)c1ccccc1             %             53.8
 9  O=C(Nc1ccc2c(c1)OCCO2)NC12CC3CC(CC(C3)C1)C2             %             72.8
10  O=C(Nc1cnn(Cc2ccccc2)c1)NC12CC3CC(CC(C3)C1)C2             %             59.3
11  Cc1ccc(Cn2ccc(=O)c(Cc3c(Cl)cccc3Cl)c2C)cc1             %             63.6
12  Cc1c(Cl)c([N+](=O)[O-])nn1Cc1ccc(C(=O)N/N=C\c2cccc(Br)c2)o1             %             66.8
13  O=C(NC1CCCCC1)N1CCCC(c2nc(-c3cccs3)no2)C1 (stereo unspecified)             %             65.8
14  O=C(NCc1cccs1)C1CCC(CNS(=O)(=O)c2ccc(Br)s2)CC1 (stereo unspecified)             %             62.3
15  O=C(Cc1ccc(Cl)cc1)Nc1ccc(N2CCN(C(=O)c3ccco3)CC2)c(Cl)c1             %             64.8
16  CC(NC(=O)CSc1nnc(-c2cccc(S(=O)(=O)N3CCCCC3)c2)o1)C12CC3CC(CC(C3)C1)C2 (stereo unspecified)             %               66
17  CC(=O)N1CCN(c2ccc(NC(=O)COc3ccc(Cl)cc3Cl)cc2)CC1             %             38.5
18     C/C(=N\NC(=O)Cc1cccn1C)c1cccc2ccccc12             %             40.4
19  COc1ccc(CCNC(=O)c2ccc3c(c2)NC(=O)C(N2CCOCC2)S3)cc1OC (stereo unspecified)             %             49.2
20  CC1CCCN(S(=O)(=O)c2ccc(NC(=O)c3cccc(-n4cnnn4)c3)cc2)C1 (stereo unspecified)             %               59
21       O=C(NCc1ccc(N2CCCC2=O)cc1)NC1CCCCC1             %             47.5
